Overview of recorded Kd for various binders
# System name: T1, rat serum albumin (rat, UniProt P02770 25-608)
# T1 construct: also called RSA
# Assay: SPR, single cycle kinetics, pH 7.4
Give just the number in nM; leave the unit off.

M75 sdAb (VHH, also called M75 VHH) VHH: QVQLVESGGGFVQAGGSLRLSCAASGRTFDNYVMAWFRQAPGKEREFVASISGSGSITNYANSVKDRFTISRDSAKNAIYLQMNSLKPEDTALYYCAAGSRRTYYREPKFYPSWGQGTQVTVSS	315
R11 sdAb (VHH, also called R11 VHH) VHH: QVKLEESGGGLVQAGGSLRLSCVGPGFLLRSNTMGWYRQAPGKERELVAFIRPSGLTNYNDAVQGRFTISRDNAKNTVYLQMNALKPEDTAVYYCHTRPPFQRDSWGQGTQVTVSS	61.7
R28 sdAb (VHH, also called R28 VHH) VHH: QVQLVESGGGLVQAGGSLRLSCVASGRTFIAYAMGWFRQAPGKEREFVAAITNFAGGTTYYADSVKGRFTISRDNAKTTVYLQMNSLKPEDTALYYCAADRSAQTMRQVRPVLPYWGQGTQVTVSS	0.4

Switching to the query record.
GET /values?readout=Kd&item= M79 sdAb (VHH, also called M79 VHH) VHH: QVKLEESGGGLVQAGGSLKLSCAASGSTFSSSSVGWYRQAPGQQRELVAAITSGGSTNTADSVKGRFTMSRDNAKNTVYLQMRDLKPEDTAVYYCNVAGRNWVPISRYSPGPYWGQGTQVTVSS
13
